- TARGET_DESC: SARS-CoV-2 spike on live SARS-CoV-2 virus (SARS-CoV-2, UniProt P0DTC2 14-1273)
- MEASUREMENT_NOTES: cell-based or functional assay
RECORDED_ENDPOINT: PRNT90

Q: Give a short answer stating reported PRNT90 for variant 6-26 (Fc fusion) VHH: EVQLVESGGGLVQPGGSLRLSCAASGDTFSTSWMGWFRQAPGKEREFVATINTGGGTNYADSVKGRFTISADNSKNTAYLQMNSLKPEDTAVYYCARVTTSFDYWGQGTLVTVSS .
A: 62.5 ng/mL

Q: Give a short answer stating reported PRNT90 for variant 6-63 (Fc fusion, also called VHH nanobody 6-63) VHH: EVQLVESGGGLVQPGGSLRLSCAASGQTFNMGWFRQAPGKEREFVAAIGSGGSTSYADSVKGRFTISADNSKNTAYLQMNSLKPEDTAVYYCWRLGNDYFDYWGQGTLVTVSS .
A: 3.9 ng/mL

Q: Give a short answer stating reported PRNT90 for variant 6-3 (Fc fusion) VHH: EVQLVESGGGLVQPGGSLRLSCAASGFTFSPSWMGWFRQAPGKEREFVATINEYGGRNYADSVKGRFTISADNSKNTAYLQMNSLKPEDTAVYYCARVDRDFDYWGQGTLVTVSS .
A: < 0.98 ng/mL

Q: Give a short answer stating reported PRNT90 for variant 6-20 (Fc fusion) VHH: EVQLVESGGGLVQPGGSLRLSCAASGSTLPYHAMGWFRQAPGKEREFVAAITWNGASTSYADSVKGRFTISADNSKNTAYLQMNSLKPEDTAVYYCARDRYYDTSASYFESETWGQGTLVTVSS .
A: 15.6 ng/mL

Q: Give a short answer stating reported PRNT90 for variant 5-1 (Fc fusion) VHH: EVQLVESGGGLVQPGGSLRLSCAASGGTFSSIGMGWFRQAPGKEREFVAAISWDGGATAYADSVKGRFTISADNSKNTAYLQMNSLKPEDTAVYYCAKEDVGKPFDWGQGTLVTVSS .
A: 15.6 ng/mL

Q: Give a short answer stating reported PRNT90 for variant 6-76 (Fc fusion) VHH: EVQLVESGGGLVQPGGSLRLSCAASGLAFDFDGMGWFRQAPGKEREGVAAINSGGSTYYADSVKGRFTISADNSKNTAYLQMNSLKPEDTAVYYCARFFRAHDYWGQGTLVTVSS .
A: 3.9 ng/mL

Q: Give a short answer stating reported PRNT90 for variant 6-60 (Fc fusion) VHH: EVQLVESGGGLVQPGGSLRLSCAASGDTYGSYWMGWFRQAPGKEREFVATISQSGAATAYADSVKGRFTISADNSKNTAYLQMNSLKPEDTAVYYCAGLLRYSGTYYDAFDVWGQGTLVTVSS .
A: < 0.98 ng/mL

Q: Give a short answer stating reported PRNT90 for variant 5-20 (Fc fusion) VHH: EVQLVESGGGLVQPGGSLRLSCAASGRTIVPYTMGWFRQAPGKERELVAAISPSAFTEYADSVKGRFTISADNSKNTAYLQMNSLKPEDTAVYYCAARRWGYDWGQGTLVTVSS .
A: 3.9 ng/mL

Q: Give a short answer stating reported PRNT90 for variant 6-55 (Fc fusion) VHH: EVQLVESGGGLVQPGGSLRLSCAASGFTMSSSWMGWFRQAPGKEREFVARITSGGSTGYADSVKGRFTISADNSKNTAYLQMNSLKPEDTAVYYCASVDGYFDYWGQGTLVTVSS .
A: 62.5 ng/mL

FYI, the data here is from patent US20210355194A1.
